Attribution: patent US20240352133A1

Recorded measurements of kon, one per entry
- Assayed Target: Recombinant human his-tagged IGF 1R extracellular domain protein (human) (UniProt P08069)
- Protocol Description: SPR, captured antibody, pH 7.4
Write it as a number; the unit M⁻¹ s⁻¹ goes unstated.

See these solved cases before continuing.
VRDN-03100 (second entry of that label; VH and VL pair SEQ ID NO: 223) (antibody, V domains shown) VH: QVQLVESGGGVVQPGRSLRLSCAASGFTFSSYSMHWVRQAPGKGLEWVAIIWFDGSSKYYPGSVKGRFTISRDNSKNTLYLQMNSLRAEDTAVYYCARELGRRYFDIWGRGTLVTVSS VL: EIVLTQSPATLSLSPGERATLSCRASQGVSSYLAWYQQKPGQAPRLLIYGASTRATGIPARFSGSGSGTDFTLTISSLEPEDFAVYYCQQRSRWPPWTFGQGTKLEIK : 244000
VRDN-03041 (antibody, V domains shown) VH: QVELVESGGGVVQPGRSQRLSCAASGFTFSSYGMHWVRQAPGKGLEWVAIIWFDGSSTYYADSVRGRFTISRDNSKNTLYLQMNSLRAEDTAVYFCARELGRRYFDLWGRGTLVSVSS VL: EIVLTQSPATLSLSPGERATLSCRASHSVSSYLAWYQQKPGQAPRLLIYDASKRATGIPARFSGSGSGTDFTLTISSLEPEDFAVYYCQQRSKWPPWTFGQGTKVESK : 94900
VRDN-03133 (antibody, V domains shown) VH: EVQLVESGGGVVQPGRSLRLSCAASGFTFSSYSMHWVRQAPGKGLEWVAVIWYDGSSKYYADSVKSRFTISRDNSKNTLYLQMNSLRAEDTAVYYCARELGRRYFDIWGRGTLVTVSS VL: EIVMTQSPATLSVSPGERATLSCRASQGVSSNLAWYQQKPGQAPRLLIYGASTRATGIPARFSGSGSGTEFTLTISSLQSEDFAVYYCQQRSRWPPWTFGGGTKLEIK : 350000
VRDN-03050 (antibody, V domains shown) VH: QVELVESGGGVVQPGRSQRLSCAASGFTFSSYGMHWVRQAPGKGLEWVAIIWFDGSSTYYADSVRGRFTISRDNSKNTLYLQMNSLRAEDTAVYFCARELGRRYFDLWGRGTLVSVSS VL: EIVLTQSPATLSLSPGERATLSCRASQSVSSYLAWYQQKPGQAPRLLIYDHSKRATGIPARFSGSGSGTDFTLTISSLEPEDFAVYYCQQRSKWPPWTFGQGTKVESK : 103000

// moving on: another record for kon
query: Look at this binder and give its reported kon. VRDN-03130 (antibody, V domains shown) VH: EVQLVESGGGVVQPGRSLRLSCAASGFTFSSYSMHWVRQAPGKGLEWVAIIWFDGSSKYYVDSVKSRFTISRDNSKNTLYLQMNSLRAEDTAVYYCARELGRRYFDIWGQGTLVTVSS VL: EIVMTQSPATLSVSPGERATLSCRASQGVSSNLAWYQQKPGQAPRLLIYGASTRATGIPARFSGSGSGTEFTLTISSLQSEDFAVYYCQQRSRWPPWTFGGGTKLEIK
result: 101000
